All values here come from PubChem BioAssay.

Experiment: inhibitors of E-selectin induction by TNFa, primary screen, imaging, HUVEC, immunofluorescence, MLSMR starter and 10KST1 sets (AID 487);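 note: 100% = median nuclei count of all wells on the same plate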
Settings: HUVEC TNFalpha-induced E-selectin immunofluorescence imaging, at 2 µM; measured here: cell number, toxicity
READOUT_TYPE: nuclei count (%)
Express your answer in %, writing the number without its unit.

# example entries with known answers
1. COc1ccc(C2CC(C(F)(F)F)n3ncc(C(=O)NCC4CCCO4)c3N2)cc1OC (stereo not given): 132
2. CC1CN(C2CCN(C(=O)COc3ccccc3)CC2)CC(C)O1 (stereo not given): 111
3. COCc1[nH]nc2c1C(c1cccc(OC)c1)C(C#N)=C(N)O2 (stereo not given): 174

nuclei count recorded for this compound, COc1ccc(Oc2nc3c(c(=O)n(C)c(=O)n3C)n2Cc2cccc(OC)c2)cc1 , is 162

nuclei count recorded for this compound, O=C(O)CCCCCCC1C(=O)NC(=O)N1CCC(O)C1CCCCC1 (stereo not given) , is 116

###

Molecular target: Alpha-2C adrenergic receptor (Homo sapiens)
Assay: modulators of alpha2C/GIRK thallium flux, primary screen, cell-based, HEK293 alpha2C/GIRK1/2 (AID 624);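 note: slope of fluorescence ratio to pre-addition baseline per second over 15 to 24 s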
Conditions: thallium flux BTC fluorescence, at 10 µM, actives lie on both sides
Active and inactive are the calls of the source.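 The calls were made as follows: active = fluorescence slope after compound addition differing from the mean of all screened samples at 99.7% confidence, in either direction; inactive = the rest.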
Each entry below carries its reported slope.

1) CCCOc1ccc(C2NC(=O)NC2=O)cc1 (stereo not given): 0.00583 (inactive)
2) COc1ccc(-c2cc(-c3ccccc3)n3ncnc3n2)cc1: 0.00473 (inactive)
3) O=C1[C@@H]2[C@H](C(=O)N1n1cnnc1)[C@H]1C=C[C@@H]2C1: 0.00514 (inactive)
4) CCOC(=O)c1[nH]c2ccc(Br)cc2c1NC(=O)CCN1CCN(C(=O)OCC)CC1: 0.00482 (inactive)
5) CC(=O)Oc1ccccc1C1OCCN1C(C)=O (stereo not given): 0.00518 (inactive)

slope recorded for this compound, CSC1=C(C#N)C(C)CC(=O)N1 (stereo not given) , is 0.00463 (inactive)

slope recorded for this compound, CCOC(=O)[C@H](CCc1ccccc1)N[C@@H](C)C(=O)N1CCC[C@H]1C(=O)O , is 0.00627 (inactive)

slope recorded for this compound, Clc1ccccc1-c1nnc2sc(-c3ccco3)nn12 , is 0.00572 (inactive)

slope recorded for this compound, Cc1c(OCC(F)(F)F)ccnc1CS(=O)c1nc2ccccc2[nH]1 (stereo not given) , is 0.00411 (inactive)

slope recorded for this compound, Cc1c(/C(O)=C2\C(=O)C(=O)N(CCN(C)C)C2c2cccs2)cnn1-c1ccccc1 (stereo not given) , is 0.00515 (inactive)

slope recorded for this compound, COc1cccc(-c2nnc3sc(-c4ccc(C)cc4)nn23)c1 , is 0.00537 (inactive)

slope recorded for this compound, CC(C)Cc1nc(N2CCOCC2)c(C#N)c2c1CCC2 , is 0.00512 (inactive)

slope recorded for this compound, Cc1ccc(C2/C(=C(/O)c3cnn(-c4ccccc4)c3C)C(=O)C(=O)N2CCN2CCOCC2)o1 (stereo not given) , is 0.00497 (inactive)

slope recorded for this compound, N#CC1=C(N)C(C#N)(C#N)[C@H](c2ccncc2)[C@H]2CN(C(=O)OCc3ccccc3)CC=C12 , is 0.00576 (inactive)

slope recorded for this compound, Cc1nnc(C)n1/N=C/c1cccn1C , is 0.00647 (inactive)

slope recorded for this compound, O=C1CCc2nc3ccccc3c(=O)n2N1 , is 0.00483 (inactive)

slope recorded for this compound, O=C1CC(N(O)C2CC(=O)N(Cc3ccccc3)C2=O)C(=O)N1Cc1ccccc1 (stereo not given) , is 0.0039 (inactive)

slope recorded for this compound, c1ccc(N2CCN(c3nc(-c4ccccn4)nc4ccccc34)CC2)cc1 , is 0.0043 (inactive)

slope recorded for this compound, COC(=O)c1[nH]c2cc(OC)ccc2c1NC(=O)CCN1CCCC(C)(C)C1 , is 0.00716 (inactive)

slope recorded for this compound, CCOc1ccc(C2/C(=C(/O)c3ccc(F)cc3)C(=O)C(=O)N2CCCN(C)C)cc1 (stereo not given) , is 0.00504 (inactive)

slope recorded for this compound, CC(=O)NS(=O)(=O)c1ccc(N)cc1 , is 0.00641 (inactive)

slope recorded for this compound, COc1cc(C2CC(C(F)(F)F)n3ncc(C(=O)O)c3N2)cc(OC)c1OC (stereo not given) , is 0.0046 (inactive)

slope recorded for this compound, C[C@]12CC[C@@H]3c4ccc(OC(=O)c5ccccc5)cc4CC[C@H]3[C@@H]1CC[C@@H]2O , is 0.00784 (inactive)

###

Each entry below carries its reported inhibition.
Experiment: inhibitors of TNFa-induced NFkB p65 translocation, primary screen, imaging, HUVEC, MLSMR starter and 10KST1 sets (AID 438);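 note: compound added about 3h40 before a 20 min TNFalpha stimulation; signal is the nuclear over cytoplasmic p65 intensity ratio per well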
Conditions: HUVEC TNFa-induced p65 nuclear translocation; at 2 µM, stronger effect = higher value, 0% TNFa-plus-vehicle, 100% no-TNFa wells
Express your answer in %, writing the number without its unit.

# example entries with known answers
1. CC(C)OC(=O)c1nn2c(C(F)(F)F)cc(-c3ccc(Br)o3)nc2c1Br: -4.9
2. O=C(Nc1ncn[nH]1)c1c(Cl)ccc(Cl)c1Cl: -1.6
3. COc1cc(C2C(C#N)=C(N)Oc3cc(C)n(Cc4ccccn4)c(=O)c32)cc2c1OCO2 (stereo not given): 6.2

inhibition recorded for this molecule, CC(=O)c1cc(C#N)c(SCc2ccncc2)nc1C , is -18.5

inhibition recorded for this molecule, CCCCCC(=O)N1CC2(C)CN(C(=O)CCCCC)CC(C)(C1)C2=O , is 3.2

inhibition recorded for this molecule, CCOc1ccc(S(=O)(=O)N(C)C)cc1-c1nc2c(C(C)(C)C)nn(C)c2c(=O)[nH]1 , is 20.9

inhibition recorded for this molecule, O=c1[nH]c(CN2CCCCC2)nc2c1C1(CCCC1)Cc1ccccc1-2 , is -0.5

inhibition recorded for this molecule, Cc1cc(Cl)ccc1OCC(=O)OC(C)C(=O)N(C)C (stereo not given) , is -24

inhibition recorded for this molecule, C=CCOC(=O)C(C#N)c1nc2ccccc2nc1N1CCC(C(=O)OCC)CC1 (stereo not given) , is -17.7

inhibition recorded for this molecule, CN(C)c1ccc(O)c2c1CC1CC3[C@@H](N(C)C)C(=O)C(C(N)=O)=C(O)[C@]3(O)C(=O)C1=C2O (stereo not given in full) , is -12.2

###

Target: Alpha-2C adrenergic receptor (Homo sapiens) (UniProt P18825)
Sequence (P18825 whole entry, looked up): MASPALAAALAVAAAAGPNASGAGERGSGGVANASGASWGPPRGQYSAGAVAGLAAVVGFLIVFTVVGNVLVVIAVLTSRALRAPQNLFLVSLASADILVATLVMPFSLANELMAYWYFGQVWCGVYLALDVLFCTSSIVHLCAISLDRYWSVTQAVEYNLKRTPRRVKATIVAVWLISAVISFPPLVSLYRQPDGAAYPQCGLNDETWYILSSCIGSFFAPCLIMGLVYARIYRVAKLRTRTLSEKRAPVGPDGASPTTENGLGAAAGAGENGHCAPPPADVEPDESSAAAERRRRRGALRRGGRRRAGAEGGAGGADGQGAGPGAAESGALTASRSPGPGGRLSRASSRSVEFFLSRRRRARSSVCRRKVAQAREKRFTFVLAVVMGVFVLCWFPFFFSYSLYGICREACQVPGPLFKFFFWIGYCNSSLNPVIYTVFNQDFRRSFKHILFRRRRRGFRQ
Experiment: modulators of alpha2C/GIRK thallium flux, primary screen, cell-based, HEK293 alpha2C/GIRK1/2 (AID 624);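 note: slope of fluorescence ratio to pre-addition baseline per second over 15 to 24 s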
Details: thallium flux BTC fluorescence, at 10 µM, actives lie on both sides
Each entry below carries its reported slope.
Reply briefly: the number, and no unit.

# example entries with known answers
1) COc1cc([C@@H]2[C@H]3CNCC=C3C(C#N)=C(N)C2(C#N)C#N)ccc1OC(C)C: 0.00559
2) Nc1ccc2[nH]ncc2c1: 0.00441
3) CC1CN(C2CCN(S(=O)(=O)c3ccccc3)CC2)CC(C)O1 (stereo not drawn): 0.00481
4) CN(C)c1nc2n(c(=O)n1)C(C#N)CS2 (stereo not drawn): 0.00693
5) COCCc1ccc(OCC(O)CNC(C)C)cc1 (stereo not drawn): 0.00577

slope recorded for this compound, CCN(CC)c1ccc2cc(C(=O)Nc3ccccn3)c(=O)oc2c1 , is 0

slope recorded for this compound, CC(=O)N1CC=C2C(C#N)=C(N)C(C#N)(C#N)[C@H](c3ccoc3)[C@H]2C1 , is 0.00495

slope recorded for this compound, COc1cc([C@@H]2c3cc4c(cc3[C@H](O)[C@H]3COC(=O)[C@H]23)OCO4)cc(OC)c1OC , is 0.00519

slope recorded for this compound, Clc1ccc(-c2cn3c(n2)CCC3)cc1 , is 0.00501

slope recorded for this compound, c1cncc(-c2nnc3sc(-c4ccco4)nn23)c1 , is 0.00677

###

Each entry below carries its reported z-score.
Experiment: DUSP6 inhibitors restoring Erk phosphorylation by chemical complementation, primary imaging in DUSP6-transfected HeLa (AID 609)
Conditions: HeLa MKP-3 transfected, phospho-Erk imaging KS statistic; measured here: nuclear pErk red intensity z-score; at 10 µM; stronger effect = higher value; cells stimulated with TPA for 15 min
Reply briefly: the number, and no unit.

1) CC(=O)[C@H]1CC[C@H]2[C@@H]3CCC4=CC(=O)CC[C@]4(C)[C@H]3[C@H](O)C[C@]12C: -0.978
2) Cc1ccc(S(=O)(=O)NCC(=O)OCN2C(=O)c3ccccc3C2=O)cc1: 0.197
3) COc1ccccc1C(=O)N1CCN(Cc2ccc3c(c2)OCO3)CC1: 1
4) COCCCNc1nc(-c2ccncc2)nc2ccccc12: -0.825

z-score recorded for this compound, CC(C)C1Cc2c(sc3c2c(=O)n(Cc2ccccc2)c2nncn32)CO1 (stereo not given) , is -0.614
